# Test system: RIVA
# test details: growth inhibition by drug plus 177Lu-lilotomab satetraxetan (1 - RLU/untreated control) (fraction); higher = stronger inhibition
# condition summary: 100 nM; time (day): 3; 177Lu-lilotomab satetraxetan 0.5 ug/ml
Where a name gives a salt, the structure may show the parent alone.
Rule: growth inhibition by drug plus 177Lu-lilotomab satetraxetan under 0.6 gives Criterion not met, otherwise Criterion met.

compound	label
Nc1[nH]nc2nnc(-c3c(-c4ccccc4)nn4ccccc34)cc12	Criterion not met
CNCc1ccc(-c2[nH]c3cc(F)cc4c3c2CCNC4=O)cc1	Criterion not met
CCOc1cc(C(=O)Nc2ccc(Cl)c(-c3nc4ccccc4[nH]3)c2)cc(OCC)c1OCC	Criterion met
CN(C)CCOc1ccc(/C(=C(/CCCl)c2ccccc2)c2ccccc2)cc1 [Toremifene Citrate (Fareston, Acapodene)]	Criterion met
O=C(O)c1ccc2c(c1)nc(Nc1cccc(Cl)c1)c1ccncc12 [cx-4945 (Silmitasertib)]	Criterion not met
CC(=O)O[C@@]12CO[C@@H]1C[C@H](O)[C@@]1(C)C(=O)[C@H](O)C3=C(C)[C@@H](OC(=O)[C@H](O)[C@@H](NC(=O)OC(C)(C)C)c4ccccc4)C[C@@](O)([C@@H](OC(=O)c4ccccc4)[C@H]21)C3(C)C	Criterion met
CC1(CN2CCC(n3c(=O)[nH]c4ccccc43)CC2)OCc2ccccc2-n2cccc21 (configuration not stated)	Criterion not met
